Assay: Inhibition of PLK1 in human MIAPaCa2 cells after 48 hrs by MTT assay
assayMetric: pEC50
Friendly reminder that pEC50 comes from taking -log10 of the concentration in mol/L.

// known answers, use as guide
[[record]]
molecule = "CC(C)(C)Nc1c(Nc2ccnc(Nc3ccc(-c4cn[nH]c4)cc3)n2)c(=O)c1=O"
assaymetric = "pEC50"
datavalue = 5.79

[[record]]
molecule = "CC(C)(C)Nc1c(Nc2ccnc(Nc3ccc(-c4ccncc4)cc3)n2)c(=O)c1=O"
assaymetric = "pEC50"
datavalue = 5.98

[[record]]
molecule = "CC(C)(C)Nc1c(Nc2ccnc(Nc3ccc(-c4cccnc4)cc3)n2)c(=O)c1=O"
assaymetric = "pEC50"
datavalue = 5.59

[[record]]
molecule = "CC(C)(C)Nc1c(Nc2ccnc(Nc3ccc4[nH]ncc4c3)n2)c(=O)c1=O"
assaymetric = "pEC50"
datavalue = 5.83

[[record]]
molecule = "CC(C)(C)Nc1c(Nc2ccnc(Nc3ccc4ncsc4c3)n2)c(=O)c1=O"
assaymetric = "pEC50"
datavalue = 5.54

[[record]]
molecule = "CC(=O)N1CCc2cc(Nc3nccc(Nc4c(NC(C)(C)C)c(=O)c4=O)n3)ccc21"
assaymetric = "pEC50"
datavalue = 5.83


Fill in the blank: the reported pEC50 of "CC(C)(C)Nc1c(Nc2ccnc(Nc3ccc4c(c3)[nH]c3ccccc34)n2)c(=O)c1=O" is ____.
5.30

Fill in the blank: the reported pEC50 of "CC(C)(C)Nc1c(Nc2ccnc(Nc3ccc(-c4ccccn4)cc3)n2)c(=O)c1=O" is ____.
5.08

Fill in the blank: the reported pEC50 of "CC(C)(C)Nc1c(Nc2ccnc(Nc3ccc4c(c3)CCO4)n2)c(=O)c1=O" is ____.
5.54

Fill in the blank: the reported pEC50 of "CC(C)(C)Nc1c(Nc2ccnc(Nc3ccc(N4CCOCC4)cc3)n2)c(=O)c1=O" is ____.
5.05

Fill in the blank: the reported pEC50 of "CC(C)(C)Nc1c(Nc2ccnc(Nc3ccc(-c4csnn4)cc3)n2)c(=O)c1=O" is ____.
5.08
